Hey, just so you know, these numbers are from patent US20240084003A1.

Reported OD450 values follow for various binders
Target: T1, monkey CD22 protein (ACROBiosystems, catalog number SI2-R52Ha) (monkey, UniProt F6W485 20-688)
T1 construct: commercial protein; also called monkey CD22-ECD; monkey CD22-ECD-His
T1 sequence: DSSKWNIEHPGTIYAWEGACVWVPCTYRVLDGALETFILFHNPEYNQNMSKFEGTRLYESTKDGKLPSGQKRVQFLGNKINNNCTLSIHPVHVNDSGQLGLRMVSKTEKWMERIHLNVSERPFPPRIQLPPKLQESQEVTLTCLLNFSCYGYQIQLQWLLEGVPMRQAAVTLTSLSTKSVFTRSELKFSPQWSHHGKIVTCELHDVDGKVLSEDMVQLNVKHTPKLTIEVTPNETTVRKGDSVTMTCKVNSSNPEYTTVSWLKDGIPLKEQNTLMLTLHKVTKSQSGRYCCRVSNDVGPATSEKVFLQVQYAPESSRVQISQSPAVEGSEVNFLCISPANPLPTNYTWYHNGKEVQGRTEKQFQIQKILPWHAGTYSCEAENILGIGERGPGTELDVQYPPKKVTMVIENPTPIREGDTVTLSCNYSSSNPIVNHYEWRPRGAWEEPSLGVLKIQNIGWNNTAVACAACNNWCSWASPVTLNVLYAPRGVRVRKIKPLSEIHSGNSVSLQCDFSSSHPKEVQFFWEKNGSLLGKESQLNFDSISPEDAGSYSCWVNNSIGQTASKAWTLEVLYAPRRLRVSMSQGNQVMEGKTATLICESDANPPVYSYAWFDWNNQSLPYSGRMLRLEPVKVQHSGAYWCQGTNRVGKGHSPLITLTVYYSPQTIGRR
Assay: ELISA, coated monkey CD22 protein, antibody 0.001 nM
Express the result in OD450 but write the number alone.

Here are 3 binders together with their reported answers.
{"BINDER": "F2.180.16 (antibody, human IgG1, lambda, V domains shown, human-murine chimeric IgG1 lambda) VH: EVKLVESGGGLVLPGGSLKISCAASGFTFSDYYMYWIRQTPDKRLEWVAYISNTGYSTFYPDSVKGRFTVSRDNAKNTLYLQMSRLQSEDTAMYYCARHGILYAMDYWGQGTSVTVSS VL: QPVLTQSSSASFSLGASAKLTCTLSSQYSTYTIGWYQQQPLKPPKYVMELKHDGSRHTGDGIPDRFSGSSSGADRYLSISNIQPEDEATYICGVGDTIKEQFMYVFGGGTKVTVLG", "OD450 / OD450": 0.05}
{"BINDER": "F1.172.13 (antibody, human IgG1, kappa, V domains shown, human-murine chimeric IgG1 kappa) VH: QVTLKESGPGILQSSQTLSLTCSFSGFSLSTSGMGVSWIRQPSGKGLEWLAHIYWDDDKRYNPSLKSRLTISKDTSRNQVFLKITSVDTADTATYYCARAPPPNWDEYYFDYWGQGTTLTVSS VL: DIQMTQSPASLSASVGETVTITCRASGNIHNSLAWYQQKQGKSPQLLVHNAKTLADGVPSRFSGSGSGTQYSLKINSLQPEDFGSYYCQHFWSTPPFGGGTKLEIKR", "OD450 / OD450": 0.82}
{"BINDER": "F1.257.3 (antibody, human IgG1, kappa, V domains shown, human-murine chimeric IgG1 kappa; VL name legible) VH: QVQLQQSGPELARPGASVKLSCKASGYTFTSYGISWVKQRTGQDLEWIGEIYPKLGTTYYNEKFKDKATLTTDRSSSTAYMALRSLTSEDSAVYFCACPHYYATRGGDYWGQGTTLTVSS VL: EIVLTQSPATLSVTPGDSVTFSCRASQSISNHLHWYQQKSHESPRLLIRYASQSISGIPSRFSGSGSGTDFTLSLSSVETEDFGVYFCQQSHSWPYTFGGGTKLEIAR", "OD450 / OD450": 0.05}

# OD450 of F1.231.15 (antibody, IgG1, V domains shown, human-murine chimeric IgG1 kappa) VH: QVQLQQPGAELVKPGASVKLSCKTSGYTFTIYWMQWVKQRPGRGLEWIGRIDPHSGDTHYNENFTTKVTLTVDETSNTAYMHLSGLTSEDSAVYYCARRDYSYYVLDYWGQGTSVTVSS VL: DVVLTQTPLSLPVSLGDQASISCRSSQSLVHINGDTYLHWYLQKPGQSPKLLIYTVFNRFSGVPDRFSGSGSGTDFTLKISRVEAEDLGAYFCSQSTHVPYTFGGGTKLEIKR = 0.06

# OD450 of F2.104.10 (antibody, human IgG1, lambda, V domains shown, human-murine chimeric IgG1 lambda) VH: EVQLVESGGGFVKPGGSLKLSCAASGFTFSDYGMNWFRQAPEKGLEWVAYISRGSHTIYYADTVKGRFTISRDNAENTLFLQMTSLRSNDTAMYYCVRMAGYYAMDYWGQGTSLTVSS VL: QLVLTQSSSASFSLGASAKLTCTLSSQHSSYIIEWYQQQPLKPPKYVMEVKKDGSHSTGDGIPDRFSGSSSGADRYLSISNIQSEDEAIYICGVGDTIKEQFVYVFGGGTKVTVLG = 0.05

# OD450 of F2.55.1 (antibody, human IgG1, lambda, V domains shown, human-murine chimeric IgG1 lambda; VL name legible) VH: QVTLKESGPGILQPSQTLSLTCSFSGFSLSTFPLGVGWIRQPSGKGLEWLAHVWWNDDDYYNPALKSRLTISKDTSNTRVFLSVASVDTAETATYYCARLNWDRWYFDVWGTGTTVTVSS VL: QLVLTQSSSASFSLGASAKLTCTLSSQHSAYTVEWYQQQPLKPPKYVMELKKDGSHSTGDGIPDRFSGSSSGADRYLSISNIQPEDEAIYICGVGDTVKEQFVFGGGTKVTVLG = 0.18
